// each record: one item and its Average (percentage cell inhibition), Dmastoparan MDA-MB231 12.5uM for MDA-MB-231 cells

// each listed molecule needs a value for Average (percentage cell inhibition), Dmastoparan MDA-MB231 12.5uM
1. CC[C@H](C)[C@H](N)C(=O)N[C@@H](CC(N)=O)C(=O)N[C@@H](CC(C)C)C(=O)N[C@@H](CCCCN)C(=O)N[C@@H](C)C(=O)N[C@@H](CC(C)C)C(=O)N[C@@H](C)C(=O)N[C@@H](CCC(N)=O)C(=O)N[C@@H](CC(C)C)C(=O)N[C@@H](C)C(=O)N[C@@H](CCCCN)C(=O)N[C@@H](CCCCN)C(=O)N[C@H](C(=O)N[C@@H](CC(C)C)C(N)=O)[C@@H](C)CC
2. CC[C@H](C)[C@H](NC(=O)[C@H](CCCCN)NC(=O)[C@H](CCCCN)NC(=O)[C@H](C)NC(=O)[C@H](CC(C)C)NC(=O)[C@H](C)NC(=O)[C@H](C)NC(=O)[C@H](CC(C)C)NC(=O)[C@H](C)NC(=O)[C@H](CCCCN)NC(=O)[C@H](CC(C)C)NC(=O)[C@H](CC(N)=O)NC(=O)[C@@H]1CCCN1)C(=O)N[C@@H](CC(C)C)C(N)=O [P1]
3. CC[C@H](C)[C@H](N)C(=O)N[C@@H](CC(N)=O)C(=O)N[C@@H](CC(C)C)C(=O)N[C@@H](CCCCN)C(=O)N[C@@H](C)C(=O)N[C@@H](CC(C)C)C(=O)N[C@@H](C)C(=O)N[C@@H](C)C(=O)N[C@@H](CC(C)C)C(=O)N[C@@H](C)C(=O)N[C@@H](CCCCN)C(=O)N[C@@H](CC(N)=O)C(=O)N[C@H](C(=O)N[C@@H](CC(C)C)C(N)=O)[C@@H](C)CC

["46.0978%", "43.0723%", "52.6491%"]

* * *

The next entries give measured Average (percentage cell inhibition), Dmastoparan MDA-MB231 12.5uM for MDA-MB-231 cells.
Numbers only, in %.

[
  {
    "Smiles data": "CC[C@H](C)[C@H](N)C(=O)N[C@H](C(=O)N[C@@H](CC(C)C)C(=O)N[C@@H](CCCCN)C(=O)N[C@@H](C)C(=O)N[C@@H](CC(C)C)C(=O)N[C@@H](C)C(=O)N[C@@H](C)C(=O)N[C@@H](CC(C)C)C(=O)N[C@@H](C)C(=O)N[C@@H](CCCCN)C(=O)N[C@@H](CCCCN)C(=O)N[C@H](C(=O)N[C@@H](CC(C)C)C(N)=O)[C@@H](C)CC)[C@@H](C)CC",
    "Unit name": "%",
    "Recorded result": 82.9517
  }
]

Go through the list and state Average (percentage cell inhibition), Dmastoparan MDA-MB231 12.5uM for each entry.
1. CC[C@H](C)[C@H](N)C(=O)N[C@H](C(=O)N[C@@H](CC(C)C)C(=O)N[C@@H](CCCCN)C(=O)N[C@@H](C)C(=O)N[C@@H](CC(C)C)C(=O)N[C@@H](C)C(=O)N[C@@H](C)C(=O)N[C@@H](CC(C)C)C(=O)N[C@@H](C)C(=O)N[C@@H](CCCCN)C(=O)N[C@@H](CCCCN)C(=O)N[C@H](C(=O)N[C@@H](CC(C)C)C(N)=O)[C@@H](C)CC)C(C)C
2. CC[C@H](C)[C@H](N)C(=O)N[C@@H](CCCCN)C(=O)N[C@@H](CC(C)C)C(=O)N[C@@H](CCCCN)C(=O)N[C@@H](C)C(=O)N[C@@H](CC(C)C)C(=O)N[C@@H](C)C(=O)N[C@@H](C)C(=O)N[C@@H](CC(C)C)C(=O)N[C@@H](C)C(=O)N[C@@H](CCCCN)C(=O)N[C@@H](CCCCN)C(=O)N[C@H](C(=O)N[C@@H](CC(C)C)C(N)=O)[C@@H](C)CC
3. CC[C@H](C)[C@H](N)C(=O)N[C@@H](CC(N)=O)C(=O)N[C@@H](CC(C)C)C(=O)N[C@@H](CCCCN)C(=O)N[C@@H](C)C(=O)N[C@@H](CC(C)C)C(=O)N[C@@H](C)C(=O)N[C@@H](C)C(=O)N[C@@H](CC(C)C)C(=O)N[C@@H](C)C(=O)N[C@@H](CCCCN)C(=O)N[C@@H](CCC(N)=O)C(=O)N[C@H](C(=O)N[C@@H](CC(C)C)C(N)=O)[C@@H](C)CC
4. CC[C@H](C)[C@H](N)C(=O)N[C@@H](CC(N)=O)C(=O)N[C@@H](CC(C)C)C(=O)N[C@@H](CCCCN)C(=O)N[C@@H](C)C(=O)N[C@@H](CC(C)C)C(=O)N[C@@H](C)C(=O)N[C@@H](C)C(=O)N[C@@H](CC(C)C)C(=O)N[C@@H](C)C(=O)N[C@@H](CCCCN)C(=O)N[C@@H](CCCCN)C(=O)NCC(=O)N[C@@H](CC(C)C)C(N)=O
5. CC[C@H](C)[C@H](NC(=O)[C@H](CCCCN)NC(=O)[C@H](CCCCN)NC(=O)[C@H](C)NC(=O)[C@H](CC(C)C)NC(=O)[C@H](C)NC(=O)[C@H](C)NC(=O)[C@H](CC(C)C)NC(=O)[C@H](C)NC(=O)[C@H](CCCCN)NC(=O)[C@H](CC(C)C)NC(=O)[C@H](CC(N)=O)NC(=O)[C@@H](N)Cc1c[nH]c2ccccc12)C(=O)N[C@@H](CC(C)C)C(N)=O

1: 91.4206; 2: 44.3131; 3: 35.4495; 4: 23.4491; 5: 42.4034

* * *

Each entry below carries its measured Average (percentage cell inhibition), Dmastoparan MDA-MB231 12.5uM, system: MDA-MB-231 cells.
Write the figure, then the unit, nothing else.

[
  {
    "Molecule": "CC[C@H](C)[C@H](N)C(=O)N[C@@H](CC(N)=O)C(=O)N[C@@H](CC(C)C)C(=O)N[C@@H](CCCCN)C(=O)N[C@@H](C)C(=O)N[C@@H](CC(C)C)C(=O)NCC(=O)N[C@@H](C)C(=O)N[C@@H](CC(C)C)C(=O)N[C@@H](C)C(=O)N[C@@H](CCCCN)C(=O)N[C@@H](CCCCN)C(=O)N[C@H](C(=O)N[C@@H](CC(C)C)C(N)=O)[C@@H](C)CC [G7]",
    "Recorded result": "49.0864%"
  },
  {
    "Molecule": "CC[C@H](C)[C@H](N)C(=O)N[C@@H](CC(N)=O)C(=O)N[C@@H](CC(C)C)C(=O)N[C@@H](CCCCN)C(=O)N[C@H](C(=O)N[C@@H](CC(C)C)C(=O)N[C@@H](C)C(=O)N[C@@H](C)C(=O)N[C@@H](CC(C)C)C(=O)N[C@@H](C)C(=O)N[C@@H](CCCCN)C(=O)N[C@@H](CCCCN)C(=O)N[C@H](C(=O)N[C@@H](CC(C)C)C(N)=O)[C@@H](C)CC)[C@@H](C)CC [I5]",
    "Recorded result": "71.3869%"
  }
]

Let's switch to this molecule now.
Item: CC[C@H](C)[C@H](N)C(=O)N[C@@H](CC(N)=O)C(=O)N[C@@H](CC(C)C)C(=O)N[C@@H](CCCCN)C(=O)N[C@@H](C)C(=O)N[C@@H](CC(C)C)C(=O)N[C@@H](C)C(=O)N[C@@H](Cc1c[nH]cn1)C(=O)N[C@@H](CC(C)C)C(=O)N[C@@H](C)C(=O)N[C@@H](CCCCN)C(=O)N[C@@H](CCCCN)C(=O)N[C@H](C(=O)N[C@@H](CC(C)C)C(N)=O)[C@@H](C)CC [H8] Test system: MDA-MB-231 cells Read-out: Average (percentage cell inhibition), Dmastoparan MDA-MB231 12.5uM Value: ?
53.8201%

* * *

System: MDA-MB-231 cells | Read-out: Average (percentage cell inhibition), Dmastoparan MDA-MB231 12.5uM
Answers are plain numbers, in %.

[
  {
    "Compound": "CC[C@H](C)[C@H](N)C(=O)N[C@@H](CC(N)=O)C(=O)N[C@@H](CC(C)C)C(=O)N[C@@H](CCCCN)C(=O)N[C@@H](C)C(=O)N[C@@H](CC(C)C)C(=O)N[C@@H](C)C(=O)N[C@@H](C)C(=O)N[C@@H](CC(C)C)C(=O)N[C@@H](Cc1ccc(O)cc1)C(=O)N[C@@H](CCCCN)C(=O)N[C@@H](CCCCN)C(=O)N[C@H](C(=O)N[C@@H](CC(C)C)C(N)=O)[C@@H](C)CC [Y10]",
    "Recorded result": 27.1013
  },
  {
    "Compound": "CC[C@H](C)[C@H](N)C(=O)N[C@@H](CC(N)=O)C(=O)N[C@@H](CC(C)C)C(=O)N[C@@H](CCCCN)C(=O)N[C@@H](C)C(=O)N[C@@H](CC(C)C)C(=O)N[C@@H](C)C(=O)N[C@@H](C)C(=O)N[C@@H](CC(C)C)C(=O)N[C@@H](C)C(=O)N[C@@H](CCCCN)C(=O)N[C@@H](CCCCN)C(=O)N[C@H](C(=O)N1CCC[C@H]1C(N)=O)[C@@H](C)CC [P14]",
    "Recorded result": 0.693
  },
  {
    "Compound": "CC[C@H](C)[C@H](N)C(=O)N[C@@H](CC(N)=O)C(=O)N[C@@H](CC(C)C)C(=O)N[C@@H](CCCCN)C(=O)NCC(=O)N[C@@H](CC(C)C)C(=O)N[C@@H](C)C(=O)N[C@@H](C)C(=O)N[C@@H](CC(C)C)C(=O)N[C@@H](C)C(=O)N[C@@H](CCCCN)C(=O)N[C@@H](CCCCN)C(=O)N[C@H](C(=O)N[C@@H](CC(C)C)C(N)=O)[C@@H](C)CC [G5]",
    "Recorded result": 39.6978
  },
  {
    "Compound": "CC[C@H](C)[C@H](N)C(=O)N[C@@H](CC(N)=O)C(=O)N[C@@H](CC(C)C)C(=O)N[C@@H](CCCCN)C(=O)N[C@@H](C)C(=O)N[C@@H](CC(C)C)C(=O)N[C@@H](C)C(=O)N[C@@H](C)C(=O)N[C@@H](CC(C)C)C(=O)N[C@@H](C)C(=O)N[C@@H](CCC(=O)O)C(=O)N[C@@H](CCCCN)C(=O)N[C@H](C(=O)N[C@@H](CC(C)C)C(N)=O)[C@@H](C)CC [E11]",
    "Recorded result": 19.6815
  },
  {
    "Compound": "CC[C@H](C)[C@H](N)C(=O)N[C@@H](CC(N)=O)C(=O)N[C@@H](CC(C)C)C(=O)NCC(=O)N[C@@H](C)C(=O)N[C@@H](CC(C)C)C(=O)N[C@@H](C)C(=O)N[C@@H](C)C(=O)N[C@@H](CC(C)C)C(=O)N[C@@H](C)C(=O)N[C@@H](CCCCN)C(=O)N[C@@H](CCCCN)C(=O)N[C@H](C(=O)N[C@@H](CC(C)C)C(N)=O)[C@@H](C)CC [G4]",
    "Recorded result": 39.0682
  }
]

Now for another entry.
What measured Average (percentage cell inhibition), Dmastoparan MDA-MB231 12.5uM goes with CC[C@H](C)[C@H](N)C(=O)N[C@@H](CC(N)=O)C(=O)N[C@@H](CC(C)C)C(=O)N[C@@H](CCCCN)C(=O)N[C@@H](C)C(=O)N[C@@H](CC(C)C)C(=O)N[C@@H](C)C(=O)N[C@H](C(=O)N[C@@H](CC(C)C)C(=O)N[C@@H](C)C(=O)N[C@@H](CCCCN)C(=O)N[C@@H](CCCCN)C(=O)N[C@H](C(=O)N[C@@H](CC(C)C)C(N)=O)[C@@H](C)CC)C(C)C [V8] ?
43.0954
